// data source = patent US6979572B1

Biological target: T1, ROMK1 N171D channel, P35560
T1 chain: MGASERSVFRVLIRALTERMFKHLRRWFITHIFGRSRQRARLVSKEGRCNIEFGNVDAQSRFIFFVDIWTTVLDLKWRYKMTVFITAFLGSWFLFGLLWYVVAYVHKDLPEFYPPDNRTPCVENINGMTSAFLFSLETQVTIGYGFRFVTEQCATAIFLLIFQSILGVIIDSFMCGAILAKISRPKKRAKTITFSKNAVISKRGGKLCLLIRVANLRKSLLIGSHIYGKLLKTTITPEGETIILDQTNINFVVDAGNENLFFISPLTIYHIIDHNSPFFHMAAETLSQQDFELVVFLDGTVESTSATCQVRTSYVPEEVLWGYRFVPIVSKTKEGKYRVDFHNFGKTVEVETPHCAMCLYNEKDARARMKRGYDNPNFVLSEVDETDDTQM
Recorded Endpoint: pKd
// returns pKd (minus log10 of molar concentration), number only

*Q* # input binder: ALCNCNRIIIPHMCWKKCGKK (modifications not checked) [synthetic tertiapin] ; wanted: its pKd
*A* 8.82
